# Organism: Rattus norvegicus
# testDetails: Open TG-GATES - Regimen: Daily Repeat
# Format: toxicity, organism-based, Sprague-Dawley
# Parameters: regimen Daily Repeat, gender Male, age 6 weeks
# protocolConditions: in vivo, po, 0 mg/kg, […], tissue Blood, route gavage, dose level Control, time 7 day
measuredParameter: Ret
# do not omit the unit; it follows the number

COc1ccc([C@@H]2Sc3ccccc3N(CCN(C)C)C(=O)[C@@H]2OC(C)=O)cc1 [DILTIAZEM] = 6.7%
CCCCNC(=O)NS(=O)(=O)c1ccc(C)cc1 [TOLBUTAMIDE] = 5.7%

Q. Recall and state the measured Ret for CC(=O)[C@@]1(O)CC[C@H]2[C@@H]3C=C(Cl)C4=CC(=O)CC[C@]4(C)[C@H]3CC[C@@]21C [CHLORMADINONE] .
A. 5.6%

Q. Recall and state the measured Ret for NS(=O)(=O)c1cc(C(=O)O)c(NCc2ccco2)cc1Cl [FUROSEMIDE] .
A. 5.2%

Q. Recall and state the measured Ret for CN(C/C=C/C#CC(C)(C)C)Cc1cccc2ccccc12 [TERBINAFINE] .
A. 5.2%

Q. Recall and state the measured Ret for O=c1ccc2ccccc2o1 [COUMARIN] .
A. 6.1%

Q. Recall and state the measured Ret for CC(S)C(=O)NCC(=O)O (stereo not drawn) [TIOPRONIN] .
A. 5.6%
